Biological target: CREB-binding protein/Histone acetyltransferase p300 (Homo sapiens, UniProt Q09472+Q92793)
Assay: Displacement of biotinylated ligand from recombinant His-tagged CBP/EP300 (unknown origin) measured after 10 mins by TR-FRET assay
Format: protein assay
endpoint name: log10(IC50) (log10 of the value in nM)
All values: log10 IC50 [nM].

Solved cases (5 shown):
- entry smiles: "CC(=O)N1CCc2[nH]nc(Nc3cccc(F)c3)c2C1"
  endpoint name: "log10(IC50)"
  numeric readout: 2.63
- entry smiles: "CC(=O)N1CCc2[nH]nc(Nc3cccc(OC(F)F)c3)c2C1"
  endpoint name: "log10(IC50)"
  numeric readout: 2.20
- entry smiles: "Cc1cccc(Nc2n[nH]c3c2CN(C(=O)C2CC2)CC3)c1"
  endpoint name: "log10(IC50)"
  numeric readout: 3.61
- entry smiles: "CC(=O)N1CCc2[nH]nc(Nc3cccc(C(F)(F)F)c3)c2C1"
  endpoint name: "log10(IC50)"
  numeric readout: 2.00
- entry smiles: "CC(=O)N1CCc2c(c(Nc3cccc(C)c3)nn2CCC2CC2)C1"
  endpoint name: "log10(IC50)"
  numeric readout: 2.26

Switching to the query record.
Using the record for CCc1cccc(Nc2n[nH]c3c2CN(C(C)=O)CC3)c1 , state its measured log10(IC50).
2.28

====

Target: Cytochrome P450 3A4 (Homo sapiens, UniProt P08684)
Sequence (P08684 whole entry): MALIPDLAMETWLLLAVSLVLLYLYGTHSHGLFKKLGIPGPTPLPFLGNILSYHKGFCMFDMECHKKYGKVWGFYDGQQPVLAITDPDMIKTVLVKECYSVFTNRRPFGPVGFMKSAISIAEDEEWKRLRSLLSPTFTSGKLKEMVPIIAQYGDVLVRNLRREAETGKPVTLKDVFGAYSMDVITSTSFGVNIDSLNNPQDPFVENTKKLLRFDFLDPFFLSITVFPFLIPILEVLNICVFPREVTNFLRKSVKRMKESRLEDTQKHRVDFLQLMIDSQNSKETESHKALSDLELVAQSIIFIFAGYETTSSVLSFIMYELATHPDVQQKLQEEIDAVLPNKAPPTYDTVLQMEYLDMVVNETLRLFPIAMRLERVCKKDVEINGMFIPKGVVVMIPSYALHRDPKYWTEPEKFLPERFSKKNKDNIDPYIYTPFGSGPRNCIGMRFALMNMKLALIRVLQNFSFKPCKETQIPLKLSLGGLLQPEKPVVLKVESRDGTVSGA
endpoint name: IC50

Using the record for CC(=O)N1CCc2c(c(Nc3ccc(-c4cnn(C)c4)cc3F)nn2[C@@H]2CCOC2)C1 , state its measured IC50.
> 10 µM

Origin of measurements: ChEMBL document CHEMBL3864133
